Test system: Vibrio harveyi
PROCEDURE_SUMMARY: Induction of bioluminescence in Vibrio harveyi after 4 hrs by luminescence reporter assay
EXPERIMENTAL_CONDITIONS: read-out: IC50 (the source's name)
Exercise: state measured EC50 for each of the compounds provided.
One number for each entry, in nM.

INSERT INTO measurements (compound, reported_measurement) VALUES
  ('CC(=O)OC[C@H](OC(C)=O)C(=O)C(C)=O', 2100);

Now let's try a different one.
In: Reported EC50, compound CC(=O)OCC(OC(C)=O)C(=O)C(C)=O (configuration not stated) : ____
Out: 2400
